Source of measurements: patent US20090076075A1

# TEST SYSTEM: PDGFRβ (Homo sapiens, UniProt P09619)
# Construct: endogenous in cells; host or cells: MG63 osteosarcoma cells (ATCC)
# Sequence (P09619 33-1106): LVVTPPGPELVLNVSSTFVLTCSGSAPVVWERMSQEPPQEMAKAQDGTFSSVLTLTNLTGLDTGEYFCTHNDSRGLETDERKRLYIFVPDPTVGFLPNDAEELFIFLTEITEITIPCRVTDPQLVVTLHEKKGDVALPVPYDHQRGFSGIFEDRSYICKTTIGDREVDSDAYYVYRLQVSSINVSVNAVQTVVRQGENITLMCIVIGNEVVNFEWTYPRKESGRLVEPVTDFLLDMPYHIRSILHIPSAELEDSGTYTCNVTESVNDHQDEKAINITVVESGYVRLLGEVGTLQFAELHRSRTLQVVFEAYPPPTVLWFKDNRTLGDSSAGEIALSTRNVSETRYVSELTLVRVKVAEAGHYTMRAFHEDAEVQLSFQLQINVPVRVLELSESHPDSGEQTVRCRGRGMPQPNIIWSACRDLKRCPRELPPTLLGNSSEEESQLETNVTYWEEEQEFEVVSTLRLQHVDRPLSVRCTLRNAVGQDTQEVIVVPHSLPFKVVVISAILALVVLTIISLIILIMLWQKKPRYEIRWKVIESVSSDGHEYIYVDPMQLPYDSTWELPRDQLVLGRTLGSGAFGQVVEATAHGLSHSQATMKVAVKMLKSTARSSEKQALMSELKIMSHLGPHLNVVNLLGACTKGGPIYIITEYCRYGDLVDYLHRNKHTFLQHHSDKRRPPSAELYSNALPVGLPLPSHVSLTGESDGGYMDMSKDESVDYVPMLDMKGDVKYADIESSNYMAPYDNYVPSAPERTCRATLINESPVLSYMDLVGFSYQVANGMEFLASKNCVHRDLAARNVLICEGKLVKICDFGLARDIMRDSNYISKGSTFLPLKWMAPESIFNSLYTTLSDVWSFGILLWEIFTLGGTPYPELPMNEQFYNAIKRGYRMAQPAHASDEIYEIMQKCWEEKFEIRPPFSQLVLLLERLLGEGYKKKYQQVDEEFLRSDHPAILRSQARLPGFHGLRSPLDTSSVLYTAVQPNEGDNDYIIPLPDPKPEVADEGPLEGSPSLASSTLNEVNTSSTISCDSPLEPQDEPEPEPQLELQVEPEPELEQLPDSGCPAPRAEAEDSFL
# PROCEDURE TEXT: In vitro phospho-Tyr751 PDGFRβ ELISA assay (Test (b))
# Format: cell-based
# COND: MG63 osteosarcoma cells stimulated with PDGFBB, read-out: IC50 versus phospho-Tyr751 formation in PDGFRβ
Listed here are molecules together with their documented IC50.

{"CHEMICAL STRUCTURE": "COc1cc2nccc(Oc3cnc(CC(=O)Nc4n[nH]c(C)c4C)c(OC)c3)c2cc1OC", "IC50": "~5 nM"}
{"CHEMICAL STRUCTURE": "COc1ccc2c(Oc3cnc(CC(=O)Nc4noc(C)c4C)c(OC)c3)ccnc2c1", "IC50": "~5 nM"}
{"CHEMICAL STRUCTURE": "CCc1cc(NC(=O)Cc2ncc(Oc3ccnc4ccc(F)cc34)cc2OC)no1", "IC50": "~5 nM"}

# context switch: different molecule, same IC50
Here `CCc1cc(NC(=O)Cc2ccc(Oc3ccnc4cc(OC)c(C#N)cc34)cn2)n[nH]1` was tested on PDGFRβ (Homo sapiens, UniProt P09619), and its IC50 came to ~30 nM

====

# TEST SYSTEM: KDR (VEGFR2) (Homo sapiens, UniProt P35968)
# Construct: phosphorylation of KDR expressed in human umbilical vein endothelial cells (HUVECs)
# Sequence (P35968 20-1356): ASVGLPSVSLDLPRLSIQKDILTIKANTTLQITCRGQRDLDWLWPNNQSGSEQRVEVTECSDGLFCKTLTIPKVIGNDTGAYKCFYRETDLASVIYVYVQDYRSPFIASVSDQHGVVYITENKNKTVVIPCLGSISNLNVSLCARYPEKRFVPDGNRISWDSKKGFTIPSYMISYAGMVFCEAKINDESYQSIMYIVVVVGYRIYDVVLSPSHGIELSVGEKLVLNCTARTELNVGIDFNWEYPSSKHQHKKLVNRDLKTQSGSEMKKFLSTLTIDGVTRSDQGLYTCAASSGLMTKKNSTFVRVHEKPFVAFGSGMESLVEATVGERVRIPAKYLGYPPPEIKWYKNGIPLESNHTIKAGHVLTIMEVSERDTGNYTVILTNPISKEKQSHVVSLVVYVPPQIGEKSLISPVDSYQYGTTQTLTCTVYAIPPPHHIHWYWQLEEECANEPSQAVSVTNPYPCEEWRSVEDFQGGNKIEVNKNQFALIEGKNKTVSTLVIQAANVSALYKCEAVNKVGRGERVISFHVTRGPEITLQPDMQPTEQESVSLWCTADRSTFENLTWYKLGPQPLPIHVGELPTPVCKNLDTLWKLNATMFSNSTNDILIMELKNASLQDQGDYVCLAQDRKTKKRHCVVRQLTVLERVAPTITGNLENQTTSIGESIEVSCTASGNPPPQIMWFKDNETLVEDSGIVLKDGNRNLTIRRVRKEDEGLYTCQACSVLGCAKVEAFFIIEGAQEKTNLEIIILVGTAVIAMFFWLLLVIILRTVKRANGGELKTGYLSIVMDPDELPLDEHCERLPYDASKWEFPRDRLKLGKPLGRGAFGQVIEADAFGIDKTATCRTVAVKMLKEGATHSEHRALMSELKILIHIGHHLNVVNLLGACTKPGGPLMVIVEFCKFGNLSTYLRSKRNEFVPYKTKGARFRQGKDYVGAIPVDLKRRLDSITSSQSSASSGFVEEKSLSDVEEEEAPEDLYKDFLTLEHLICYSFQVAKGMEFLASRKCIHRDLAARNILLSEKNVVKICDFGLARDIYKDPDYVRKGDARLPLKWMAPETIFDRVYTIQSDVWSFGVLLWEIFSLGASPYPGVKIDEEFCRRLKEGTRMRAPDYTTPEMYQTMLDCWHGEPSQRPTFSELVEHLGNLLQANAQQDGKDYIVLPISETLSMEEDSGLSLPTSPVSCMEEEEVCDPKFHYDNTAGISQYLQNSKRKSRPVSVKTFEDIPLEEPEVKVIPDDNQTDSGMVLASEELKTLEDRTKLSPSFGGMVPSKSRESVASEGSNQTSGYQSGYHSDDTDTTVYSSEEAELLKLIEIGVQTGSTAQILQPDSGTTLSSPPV
# PROCEDURE TEXT: In vitro phospho-KDR ELISA assay (Test (c))
# COND: HUVECs stimulated with VEGF, read-out: IC50 versus phospho-tyrosine formation in KDR
pIC50: −log10 of the molar value.
VALUE TYPE: pIC50

{"CHEMICAL STRUCTURE": "COc1cc2nccc(Oc3cnc(CC(=O)Nc4n[nH]c(C)c4C)c(OC)c3)c2cc1OC", "ENDPOINT RESULT": "< 5.70"}
{"CHEMICAL STRUCTURE": "CCc1cc(NC(=O)Cc2ncc(Oc3ccnc4ccc(F)cc34)cc2OC)no1", "ENDPOINT RESULT": "< 5.70"}

Note: attention shifts to another entry.
For `COc1ccc2c(Oc3cnc(CC(=O)Nc4noc(C)c4C)c(OC)c3)ccnc2c1` the compound record lists pIC50 as < 5.70
